Biological target: FAAH (Mus musculus, UniProt O08914)
Sequence (O08914 whole entry): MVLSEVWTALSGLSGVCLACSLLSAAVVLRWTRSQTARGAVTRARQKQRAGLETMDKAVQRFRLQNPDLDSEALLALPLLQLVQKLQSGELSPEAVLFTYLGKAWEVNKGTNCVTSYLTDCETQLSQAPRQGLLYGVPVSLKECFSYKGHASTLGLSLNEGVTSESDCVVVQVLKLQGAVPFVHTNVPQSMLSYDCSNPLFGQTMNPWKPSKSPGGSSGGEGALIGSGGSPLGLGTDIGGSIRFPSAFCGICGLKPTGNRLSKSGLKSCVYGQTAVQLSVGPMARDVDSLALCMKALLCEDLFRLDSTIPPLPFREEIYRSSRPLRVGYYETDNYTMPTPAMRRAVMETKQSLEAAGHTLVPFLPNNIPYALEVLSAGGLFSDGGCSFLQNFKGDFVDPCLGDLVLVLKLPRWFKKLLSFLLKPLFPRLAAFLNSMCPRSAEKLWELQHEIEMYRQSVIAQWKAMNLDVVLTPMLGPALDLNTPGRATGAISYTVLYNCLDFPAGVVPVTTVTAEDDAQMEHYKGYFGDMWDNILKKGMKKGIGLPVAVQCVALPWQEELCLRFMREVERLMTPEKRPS
Test: In vitro competitive activity-based protein profiling (FP-Rh), mouse FAAH
Type: biochemical
Design: from tissue; host or cells: mouse brain membrane fraction
Settings: Table 1, mouse proteome, 30 min preincubation at 37° C.
Experimental: In Vitro Competitive Activity-Based Protein Profiling. Proteomes (mouse brain membrane fraction or cell lysates) (50 μL, 1.0 mg/ml total protein concentration) were preincubated with varying concentrations of inhibitors at 37° C. After 30 min, FP-Rh (1.0 μL, 50 μM in DMSO) was added and the mixture was incubated for another 30 min at 37° C. Reactions were quenched with SDS loading buffer (50 μL—4×) and run on SDS-PAGE.
Entries and their IC50 values follow.

Lab request: please report IC50 under test system FAAH (Mus musculus, UniProt O08914) for "O=C(ON1C(=O)CCC1=O)N1CCC(CCc2ccc(Cl)cc2)CC1"
100 to 1000 nM

Field: IC50 (FAAH (Mus musculus, UniProt O08914)). Entry: "O=C(ON1C(=O)CCC1=O)N1CCC1"
> 10000 nM

Checklist item: IC50 tested on FAAH (Mus musculus, UniProt O08914), entry "O=C(ON1C(=O)CCC1=O)N1CCOCC1" , value?
> 10000 nM

What is its IC50 for FAAH (Mus musculus, UniProt O08914)? Entry: "CN(CCc1ccccc1)C(=O)ON1C(=O)CCC1=O"
> 10000 nM

Any idea what IC50 came out for "O=C(ON1C(=O)CNC1=O)N1CCCCC1" on FAAH (Mus musculus, UniProt O08914)?
> 10000 nM

# returns recorded IC50 (system: FAAH (Mus musculus, UniProt O08914)) for "CCCCCCCC/C=C\CCCCCCCCNC(=O)ON1C(=O)CCC1=O"
1000 to 10000 nM

# returns recorded IC50 (system: FAAH (Mus musculus, UniProt O08914)) for "C#CCCCCNC(=O)ON1C(=O)CCC1=O"
1000 to 10000 nM

Hi! What's the reported IC50 for "O=C(ON1C(=O)c2ccccc2C1=O)N1CCC(CCc2ccc(Cl)cc2)CC1" on FAAH (Mus musculus, UniProt O08914)?
< 100 nM
